# Target Or System: T1, Mutant 1 of human SPNS2 (FLAG tag inserted in extracellular loop 1) (human, UniProt Q8IVW8 1-549)
# T1 construct: on HEK293 cells; also called extracellular loop 1 mutant
# T1 sequence: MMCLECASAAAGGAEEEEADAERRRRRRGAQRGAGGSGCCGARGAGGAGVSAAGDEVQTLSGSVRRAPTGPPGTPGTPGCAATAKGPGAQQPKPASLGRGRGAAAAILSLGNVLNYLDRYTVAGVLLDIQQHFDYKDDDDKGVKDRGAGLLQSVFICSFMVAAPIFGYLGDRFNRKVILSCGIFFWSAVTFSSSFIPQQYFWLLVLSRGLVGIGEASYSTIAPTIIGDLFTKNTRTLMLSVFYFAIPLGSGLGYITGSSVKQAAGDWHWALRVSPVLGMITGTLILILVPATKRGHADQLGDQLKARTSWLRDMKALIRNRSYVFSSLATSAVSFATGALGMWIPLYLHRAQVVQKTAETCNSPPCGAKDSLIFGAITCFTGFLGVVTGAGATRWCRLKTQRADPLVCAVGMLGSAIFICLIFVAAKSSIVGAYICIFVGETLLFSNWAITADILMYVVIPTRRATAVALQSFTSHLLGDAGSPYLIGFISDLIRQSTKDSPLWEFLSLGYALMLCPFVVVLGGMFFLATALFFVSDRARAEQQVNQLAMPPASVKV
# Protocol Description: flow cytometry, FLAG-insertion mutant
Measurement Label: FITC+/Alexa 647+ cell rate ratio

[in] What does the record list as FITC+/Alexa 647+ cell rate ratio for 64-0807A (antibody, IgG2b, V domains shown) VH: EVQVVESGGGLVQPGRSMKLSCAALGFTFRDYYMAWVRQTPTKGLEWVAAISTGGGNTYYRDSVKGRFTISRDNAKSTLYLQMDSLRSDDTATYYCARNPYGNYFDYWGQGVMVTVSS VL: QFVLSQPNSVSTNLGSTVKLSCKRSTGNIGSNYVHWYQRHEGRSPTTLIYRDDKRPNGVPDRFSGSIDRSSNSALLTINNVQTEDEADYFCQSYSGGMYLFGGGTKLTVL ?
[out] < 0.1 ratio

[in] Let us now turn to 33-0503E (antibody, IgG2b, V domains shown) VH: EVQLVESGGGLVRPGGSMKLSCGASGFIFDNYYMTWVRQAPTKGLEWVASISSSGGNTYYRDSVRGRFTISRDNAGNTLSLQMGSLRAEDTATYHCAKEGYRGRYFDYWGQGVMVTVSS VL: QVVLTQPNSVSTNLGSTVKLSCKRTTGNIGSNYVNWYQQHEGRSPTTMIYRDDERPDGVPDRFSGSIDRSSNSALLTINNVQTEDEAEYFCQSYSSGIIFGGGTKLTVL
[out] < 0.1 ratio

[in] Let us now turn to 50-0704C (antibody, IgG2b, V domains shown) VH: EVQLVGSGGGLVQPGRSMKLSCEASGFTFSNHYMAWVRQAPTKGLEWVATISTGGGNTYYRDSVKGRFTISRDNARSTLSLQMDSLRSEDTATYYCARQDYSNYMGGFAYWGQGTLVTVSS VL: QFVLTQPNSVSTNLGSTVKLSCTRSIGNIGNNYVNWYKQYEGRSPTTMIYRDDERPDGVPDRFSGSIDRSSNSALLTINSVQTEDEADYFCQSFSSGIFIFGGGTKLTVL
[out] < 0.1 ratio
